pIC50: −log10 of the molar value.
Across several publications, the following pIC50 results were reported for Dopamine beta-hydroxylase (Bos taurus).
reported_endpoint: pIC50

Field: example entries. Status: answers known.
compound	pIC50
Fc1cc(F)cc(Cn2cccnc2=S)c1	5.55
CC(CCn1cc[nH]c1=S)c1ccccc1 (stereo not drawn)	4.74
Sc1nccn1CCCc1ccccc1	4.80
Sc1nccn1CCc1ccsc1	6.89

[1] NCc1nccn1Cc1ccc(O)cc1
[2] Fc1cccc(Cn2ncnc2S)c1
[3] Sc1nccn1CCc1cccs1
[4] Fc1cc(F)cc(Cn2nnnc2S)c1
Task item: Ordering: ascending pIC50. Please respond with the labels ordered as the question requires.
Reply: 1, 2, 4, 3
(1: 3.78, 2: 4.82, 4: 5.81, 3: 6.94)
